- measurementDescription: Tmax in fasted Zucker fa/fa rat at 30 mg/kg, po
- Assay type: ADME, organism-based
- Parameters: dose 30 mg/kg, route oral
- experimentalConditions: in vivo
measuredProperty: Tmax (h)
Give just the numeric value; h need not be written.

Notebook: Cc1c(C(=O)NN2CCCCC2)nn(-c2ccc(Cl)cc2Cl)c1-c1ccc(Cl)s1 , Tmax read as 1.4

###

- Test system: Rattus norvegicus
- measurementDescription: Antiobesity activity in Zucker fa/fa rat assessed as inhibition of 5% sucrose solution intake at 10 mg/kg administered as single dose up to 4 hrs relative to control
- Assay type: functional
Label yes when inhibition in vivo at 10 mg/kg is at or above 30%; anything below gets no.

Test whether the compound CCc1c(C(=O)NN2CCCCC2)nn(-c2ccc(Cl)cc2Cl)c1-c1ccc(Br)s1 records inhibition in vivo at 10 mg/kg of 30% or higher.
yes

Test whether the compound Cc1c(C(=O)NN2CCOCC2)nn(-c2ccc(Cl)cc2Cl)c1-c1ccc(Cl)s1 records inhibition in vivo at 10 mg/kg of 30% or higher.
yes

Test whether the compound Cc1c(C(=O)NN2CCCCC2)nn(-c2ccc(Cl)cc2Cl)c1-c1ccc(Cl)s1 records inhibition in vivo at 10 mg/kg of 30% or higher.
yes

Test whether the compound Cc1c(C(=O)NN2CCCCC2)nn(-c2ccc(Cl)cc2Cl)c1-c1ccc(I)s1 records inhibition in vivo at 10 mg/kg of 30% or higher.
yes

Test whether the compound CCc1c(C(=O)NN2CCCCC2)nn(-c2ccc(Cl)cc2Cl)c1-c1ccc(Cl)s1 records inhibition in vivo at 10 mg/kg of 30% or higher.
yes

Test whether the compound Cc1c(C(=O)NN2CCCC2)nn(-c2ccc(Cl)cc2Cl)c1-c1ccc(Cl)s1 records inhibition in vivo at 10 mg/kg of 30% or higher.
yes

Test whether the compound Cc1c(C(=O)NN2CCCCC2)nn(-c2ccc(Cl)cc2Cl)c1-c1ccc(Br)s1 records inhibition in vivo at 10 mg/kg of 30% or higher.
yes

Test whether the compound Cc1c(C(=O)NN2CCCCC2)nn(-c2ccc(Cl)cc2Cl)c1-c1cccs1 records inhibition in vivo at 10 mg/kg of 30% or higher.
no

Test whether the compound Cc1c(C(=O)NN2CC3CCCC3C2)nn(-c2ccc(Cl)cc2Cl)c1-c1ccc(Cl)s1 (stereo unspecified) records inhibition in vivo at 10 mg/kg of 30% or higher.
no

Test whether the compound Cc1c(C(=O)NN2CCCCC2)nn(-c2ccc(Cl)cc2Cl)c1-c1ccc(Cl)cc1 records inhibition in vivo at 10 mg/kg of 30% or higher.
yes

Test whether the compound Cc1c(C(=O)NN2CCCCCC2)nn(-c2ccc(Cl)cc2Cl)c1-c1ccc(Cl)s1 records inhibition in vivo at 10 mg/kg of 30% or higher.
no

###

- testedSystem: Cannabinoid receptor 1 (Homo sapiens, UniProt P21554)
- Sequence (P21554 whole entry): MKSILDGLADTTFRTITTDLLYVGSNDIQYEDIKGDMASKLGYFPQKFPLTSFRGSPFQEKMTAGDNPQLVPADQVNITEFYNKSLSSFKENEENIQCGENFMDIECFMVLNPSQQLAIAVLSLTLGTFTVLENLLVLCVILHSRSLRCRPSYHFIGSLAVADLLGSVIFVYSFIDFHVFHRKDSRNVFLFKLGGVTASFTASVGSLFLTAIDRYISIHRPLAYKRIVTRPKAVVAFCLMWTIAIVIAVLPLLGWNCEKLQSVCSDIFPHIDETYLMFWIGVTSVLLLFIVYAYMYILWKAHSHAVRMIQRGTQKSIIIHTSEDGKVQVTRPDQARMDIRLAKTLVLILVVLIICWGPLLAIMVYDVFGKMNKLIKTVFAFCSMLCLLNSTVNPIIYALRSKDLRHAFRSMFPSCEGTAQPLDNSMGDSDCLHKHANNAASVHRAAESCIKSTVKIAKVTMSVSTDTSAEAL
- measurementDescription: Antagonist activity at human cannabinoid CB1 receptor expressed in CHOK1 cells assessed as cAMP activity
Threshold 600 nM: EC50 strictly smaller gives Yes, otherwise No.

EC50 under 600 nM? Item: Cc1c(C(=O)NN2CCCCC2)nn(-c2ccc(Cl)cc2Cl)c1-c1cccs1
No

EC50 under 600 nM? Item: Cc1c(C(=O)NN2CCOCC2)nn(-c2ccc(Cl)cc2Cl)c1-c1ccc(Cl)s1
No

EC50 under 600 nM? Item: Cc1c(C(=O)NN2CCCCC2)nn(-c2ccc(Cl)cc2Cl)c1-c1ccc(Cl)s1
Yes

EC50 under 600 nM? Item: CCc1c(C(=O)NN2CCCCC2)nn(-c2ccc(Cl)cc2Cl)c1-c1ccc(Br)s1
Yes

EC50 under 600 nM? Item: CCc1c(C(=O)NN2CCCCC2)nn(-c2ccc(Cl)cc2Cl)c1-c1ccc(Cl)s1
Yes

EC50 under 600 nM? Item: Cc1c(C(=O)NN2CCCCCC2)nn(-c2ccc(Cl)cc2Cl)c1-c1ccc(Cl)s1
No

EC50 under 600 nM? Item: Cc1c(C(=O)NN2CC3CCCC3C2)nn(-c2ccc(Cl)cc2Cl)c1-c1ccc(Cl)s1 (configuration not stated)
No
